- Tested on: MOLT-4 leukemia
- assay_protocol: NCI-60 one-dose screen, 48 h
- assay_context: 10 µM unless noted
The panel holds about 83,000 compounds, 20% with a hit somewhere; the sample as a whole holds those more often. Activity calls are given as the source filed them. Rule for the calls: active = growth percent below 10; inactive = the rest.
Answer with one of the outcomes given here: active, inactive

[
  {
    "compound": "O=c1oc2ccccc2cc1-c1csc(N/N=C/c2cc3ccccc3nc2Cl)n1",
    "qualitative_label": "inactive"
  }
]

Enquiry: Check the results log: what was the call for C=CC(=O)N1CC2(CC(n3nc(-c4ccc(Oc5ccccc5)cc4)c4c(N)ncnc43)C2)C1 ?
Return: inactive

Enquiry: Check the results log: what was the call for Cc1ccc(-c2c3c(N)c4c(nc3nc3c2c(C)nn3-c2ccccc2)CCCC4)cc1 ?
Return: inactive

* * *

Parameter: growth. Scope: all listed entries.
- Test system: SK-OV-3 ovarian
- assay_protocol: NCI-60 one-dose screen, 48 h (100 = growth as untreated, 0 = no growth, -100 = all killed)
- assay_context: 10 µM
This is part of a sample that, as a whole, favours compounds with a hit. Of some 83,000 tested, about 20% had one in any assay.
Respond with the bare value in %.

Examples with answers:
[
  {
    "compound": "Cc1nc2cc(Nc3nc(Nc4ccc(F)cc4)nc(N4CCN(C)CC4)n3)ccc2n1Cc1ccccc1",
    "growth, %": 68.7
  },
  {
    "compound": "Cc1ccc(C2SCC(=O)N2NC(=O)c2[nH]c3ccc(F)cc3c2-c2ccccc2)cc1 (stereo unspecified)",
    "growth, %": 107
  },
  {
    "compound": "CC(=O)Nc1ccccc1-c1n[nH]c(=O)[nH]c1=O",
    "growth, %": 99.1
  }
]

Enquiry: Annotate the compound Nc1nc2c(s1)CCc1c-2c(Br)n(Cc2ccccc2)c1Br with its measured growth.
Return: 108

Enquiry: Annotate the compound O=C1CN2CCC1C/C2=C\c1ccnc2c(Cl)cccc12 (stereo unspecified) with its measured growth.
Return: 94.1

Enquiry: Annotate the compound COc1ncnc2c1ncn2C/C(Br)=C(\Br)CCl with its measured growth.
Return: 148

* * *

Parameter: growth. Scope: all listed entries.
- System: K-562 leukemia
- assay_protocol: NCI-60 one-dose screen, 48 h (100 = growth as untreated, 0 = no growth, -100 = all killed)
- assay_context: 10 µM unless noted
Compounds without any hit were thinned out: in the full panel of roughly 83,000, 20% have a hit.
Respond with the bare value in %.

[
  {
    "compound_structure": "C=CC(=O)N1CC2(CC(n3nc(-c4ccc(Oc5ccccc5)cc4)c4c(N)ncnc43)C2)C1",
    "growth, %": 17.7
  },
  {
    "compound_structure": "CCN1CCN(c2ccc(Nc3ncc4ccc5ncn(C(C)C)c5c4n3)nc2)CC1",
    "growth, %": 9.12
  }
]

Alright, here's another compound for you.
Enquiry: Annotate the compound O=S(=O)(Nc1ccc(Cl)c(Cl)c1)c1ccc(-c2cnc(C3CC3)o2)cc1 with its measured growth.
Return: 16.2

* * *

- System: SK-MEL-2 melanoma
- assay_protocol: NCI-60 one-dose screen, 48 h (100 = growth as untreated, 0 = no growth, -100 = all killed)
- assay_context: 10 µM unless noted
Compounds without any hit were thinned out: in the full panel of roughly 83,000, 20% have a hit.
property_measured: growth (%)
Respond with the bare value in %.

Examples with answers:
[
  {
    "compound": "COc1cc(C(F)(F)F)ccc1-c1cc(-c2ccc(F)cc2)n[nH]1",
    "quantitative_result": 118
  },
  {
    "compound": "O=c1oc2ccccc2cc1-c1csc(N/N=C/c2cc3ccccc3nc2Cl)n1",
    "quantitative_result": 106
  },
  {
    "compound": "CCOC(=O)n1cc(C2=C(c3cn(C)c4ccccc34)COC2=O)c2ccccc21",
    "quantitative_result": 57.8
  },
  {
    "compound": "CCCCC(O)Cn1ncc(C(=O)OCC)c1NC(=O)NCc1ccccc1C(F)(F)F (stereo not given)",
    "quantitative_result": 104
  }
]

Enquiry: Annotate the compound Cc1nn(CC(=O)O)c2c1C(=O)CC(C)(C)C2 with its measured growth.
Return: 113
